Origin of values: PubChem BioAssay AID1722

TARGET_OR_TEST_SYSTEM: Pyruvate kinase (Leishmania mexicana)
ASSAY_NOTES: qHTS Assay for Activators of Leishmania Mexicana Pyruvate Kinase (LmPK)
ASSAY_SETUP: purified LmPK, Kinase-Glo ATP luminescence, 1 h; series mostly up to 57.5 µM
Among all 290,000 compounds or so, fewer than 10 were called active. These entries were drawn from the full list.
PARAMETER: outcome

{"SMILES": "Cc1cnc(NC(=O)c2ccccn2)s1", "PARAMETER": "outcome", "RESULT": "inactive"}
{"SMILES": "O=C(/C=C/c1ccc2c(c1)OCCO2)c1ccc(O)cc1", "PARAMETER": "outcome", "RESULT": "inactive"}
{"SMILES": "O=C(Nc1ccccc1)Nc1ccccc1C(=O)NCc1ccco1", "PARAMETER": "outcome", "RESULT": "inactive"}
{"SMILES": "C=CCn1c(-c2ccc3[nH]c(C)c(C)c3c2)n[nH]c1=S", "PARAMETER": "outcome", "RESULT": "inactive"}
{"SMILES": "O=c1c2c(nc3n1CCCCC3)sc1c(O)cccc12", "PARAMETER": "outcome", "RESULT": "inactive"}
{"SMILES": "Nc1ncc(-c2cc3ccccc3oc2=O)s1", "PARAMETER": "outcome", "RESULT": "inactive"}
{"SMILES": "COc1ccc(C(=O)Nc2ccc(F)cc2F)cc1", "PARAMETER": "outcome", "RESULT": "inactive"}
{"SMILES": "O=[N+]([O-])c1ccc2nc(-c3ccccn3)[nH]c2c1", "PARAMETER": "outcome", "RESULT": "inactive"}
{"SMILES": "COc1ccccc1OCc1nc2ccccc2s1", "PARAMETER": "outcome", "RESULT": "inactive"}
{"SMILES": "COc1ccc(OC)c(-n2c(-c3ccn[nH]3)n[nH]c2=S)c1", "PARAMETER": "outcome", "RESULT": "inactive"}
{"SMILES": "S=c1[nH]ccn1-c1ccc(Cl)cc1", "PARAMETER": "outcome", "RESULT": "inactive"}
{"SMILES": "O=c1c(-c2ccccc2)coc2cc(O)ccc12", "PARAMETER": "outcome", "RESULT": "inactive"}
{"SMILES": "NC(=O)Cc1ccc2sc(-c3ccccc3)nc2c1", "PARAMETER": "outcome", "RESULT": "inactive"}
{"SMILES": "Cn1cccc1C(=O)Nc1nccs1", "PARAMETER": "outcome", "RESULT": "inactive"}
{"SMILES": "CC(C)c1ccc(Nc2ncccc2C#N)cc1", "PARAMETER": "outcome", "RESULT": "inactive"}
{"SMILES": "COc1ccccc1C(=O)Nc1ccc(NC(=O)c2ccco2)c(C)c1", "PARAMETER": "outcome", "RESULT": "inactive"}
{"SMILES": "CCCCSc1nnc2c(n1)OC=Nc1ccccc1-2", "PARAMETER": "outcome", "RESULT": "inactive"}
{"SMILES": "O=C1CSC(=S)N1/N=C/c1ccc(O)c([N+](=O)[O-])c1", "PARAMETER": "outcome", "RESULT": "inactive"}
{"SMILES": "Cc1nonc1C(=O)N/N=C/c1ccc(O)cc1", "PARAMETER": "outcome", "RESULT": "inactive"}
{"SMILES": "CCOc1ccc(NC(=O)Nc2cc(C)ccc2OC)cc1", "PARAMETER": "outcome", "RESULT": "inactive"}
{"SMILES": "O=c1oc2cc(O)ccc2cc1-c1ccc(F)cc1", "PARAMETER": "outcome", "RESULT": "inactive"}
{"SMILES": "O=C(/C=C/c1ccccc1)c1ccccc1O", "PARAMETER": "outcome", "RESULT": "inactive"}
{"SMILES": "Cc1cccc(NC(=O)/C=C/c2ccc3c(c2)OCO3)n1", "PARAMETER": "outcome", "RESULT": "inactive"}
{"SMILES": "CC(=O)Oc1ccccc1C(=O)Nc1ncc([N+](=O)[O-])s1", "PARAMETER": "outcome", "RESULT": "inactive"}
{"SMILES": "Cc1cc(C(=O)COC(=O)C2CC2)c(C)n1-c1ccc(F)cc1", "PARAMETER": "outcome", "RESULT": "inactive"}
{"SMILES": "COc1ccc(C(=O)/C=C/Nc2ccccn2)cc1", "PARAMETER": "outcome", "RESULT": "inactive"}
